Every entry's value here was drawn from paper PMC3031908.

Biological target: sodium channel site 2 binding site (neuronal voltage-gated sodium channel)
Test: [3H]-BTX-B binding
Parameters: species or system rat
Details: test set; −log IC50 (IC50 in μM)
# −pIC50 Obsd per entry
Answer with a bare number; do not write a unit.

Sample CCCCCCCC(O)(C(N)=O)c1cc(C)c(NC(=O)CN(CC)CC)c(C)c1 (stereo not shown) [Compound 37] ; −pIC50 Obsd observed: -0.78

Others:
Sample CCCCCCCC1(c2cc(C)c(NC(=O)CN(CC)CC)c(C)c2)NC(=O)NC1=O (stereo not shown) [Compound 44] ; −pIC50 Obsd observed: -1.13

Sample CCN(CC)CC(=O)Nc1c(C)cc(C2(c3ccccc3)NC(=O)NC2=O)cc1C (stereo not shown) [Compound 42] ; −pIC50 Obsd observed: -1.60

Sample CCN(CC)CC(=O)Nc1ccc(C2(c3ccccc3)NC(=O)NC2=O)cc1 (stereo not shown) [Compound 41] ; −pIC50 Obsd observed: -1.60
